Assay: qHTS assay to test for compound auto fluorescence at 535 nm (green) in HEK293 cells (AID 720680)
Settings: green autofluorescence 485/535 nm; series mostly up to 91.3 µM
Active and inactive are the calls of the source. The call rests on the fitted dose curve; in most records, active means well fitted curve in the direction sought with a large enough effect in the repeat runs; inconclusive means weak or mixed curves; inactive means flat fitted curve, though single readings scatter.
endpoint.name: outcome

1. CC(O)CO (stereo not given): inactive
2. O=C(c1ccccc1)c1ccccc1: inactive
3. O=C(O)C(=O)O: inactive
4. CNC[C@H](O)c1cccc(O)c1: inactive
5. COc1c2occc2cc2ccc(=O)oc12: inactive
6. O=C(O)CCCCCCCC(=O)O: inactive
7. Nc1ccc(S(=O)(=O)Nc2nccs2)cc1: inactive
8. Cc1cc(=O)[nH]c(=S)[nH]1: inactive
9. Cc1ccc(O)cc1: inactive
10. C1N2CN3CN1CN(C2)C3: inactive
11. Nc1ccc(C(=O)O)cc1: inactive
12. Cc1cc(=O)n(-c2ccccc2)n1C: inactive
13. Nc1ccc(O)c(C(=O)O)c1: inactive
14. O=C(O)c1cc(N=Nc2ccc(S(=O)(=O)Nc3ccccn3)cc2)ccc1O: inactive
15. Cc1noc(NS(=O)(=O)c2ccc(N)cc2)c1C: inactive
16. O=c1ccc2ccccc2o1: inactive
17. O=C(O)c1[nH]n(-c2ccc(S(=O)(=O)O)cc2)c(=O)c1N=Nc1ccc(S(=O)(=O)O)cc1: inactive
18. O=S(=O)(O)c1ccc2cc(O)ccc2c1: inactive
19. Oc1ccc(/C=C/c2cc(O)cc(O)c2)cc1: inactive
20. CCCC(O)C(CC)CO (stereo not given): inactive
21. Cc1ccc(C)c(OCCCC(C)(C)C(=O)O)c1: inactive
22. CCCC(CCC)C(=O)O: inactive
23. CC(=O)OCC(COC(C)=O)OC(C)=O: inactive
24. O=C(O)c1cccnc1: inactive
25. CC(=O)NS(=O)(=O)c1ccc(N)cc1: inactive
26. C[C@]12C=CC(=O)C=C1CC[C@@H]1[C@@H]2[C@@H](O)C[C@@]2(C)[C@H]1CC[C@]2(O)C(=O)CO: inactive
27. CC(O)C(=O)O (stereo not given): inactive
28. CC(=O)Nc1nnc(S(N)(=O)=O)s1: inactive
29. O=C(O)CCC(=O)O: inactive
30. COc1ccc2[nH]cc(CCNC(C)=O)c2c1: inactive

Attribution: PubChem BioAssay (Tox21)
